# Tested on: UACC-62
# PROTOCOL_DESCRIPTION: NCI tumour cell line growth inhibition, 48 h
The source made the active and inactive calls. Cut-off read from the data, not from the text of the source: active = GI50 up to about 1.1 µM and inactive = higher.
Possible outcomes: label 1 (active), label 0 (inactive)

{"COMPOUND": "Cc1ccc(NC(=O)CC2SC(=N)NC2=O)cc1C (stereo not drawn)", "CAT": "label 0"}
{"COMPOUND": "CCOC(=O)c1c(CN2CCCC2)n(-c2ccccc2)c2cc(Br)c(O)cc12", "CAT": "label 0"}
{"COMPOUND": "COc1cc(/C=C2\\NC(=O)N(/C=C3\\C(=O)Oc4ccccc4C3=O)C2=O)ccc1O", "CAT": "label 0"}
{"COMPOUND": "COC(=O)/C(C#N)=C/c1cc(C(C)(C)C)c(O)c(C(C)(C)C)c1", "CAT": "label 0"}
{"COMPOUND": "CCCCCCCCC/C=C1\\CCC(CN(C)C)C1=O (stereo not drawn)", "CAT": "label 0"}
{"COMPOUND": "O=C(CCC(=O)C1Cc2ccccc2C1=O)Nc1cccc(C(F)(F)F)c1 (stereo not drawn)", "CAT": "label 0"}
{"COMPOUND": "O=C(Nc1ccn(CCO)c(=O)n1)c1ccccc1", "CAT": "label 0"}
{"COMPOUND": "NC(=O)SCC(=O)Nc1ccc2cccc3c2c1CC3", "CAT": "label 0"}
{"COMPOUND": "Cc1ccc(S(=O)(=O)NC2=NS(=O)(=O)c3cc(C)c(Cl)cc3S2)cc1", "CAT": "label 0"}
{"COMPOUND": "CC1(C)OCC(C2OC(N3O[C@H](CI)C[C@@H]3c3ccccc3)C3OC(C)(C)OC23)O1 (stereo partly drawn)", "CAT": "label 0"}
{"COMPOUND": "COC(=O)/C(=N\\NC(N)=O)C(C(=O)C(=O)Nc1ccccc1OC)c1nc2ccc([N+](=O)[O-])cc2nc1O (stereo not drawn)", "CAT": "label 0"}
{"COMPOUND": "CCOC(=O)NC(Nc1cc(Cl)ccc1OC)(C(F)(F)F)C(F)(F)F", "CAT": "label 0"}
{"COMPOUND": "Nc1ccc(Oc2ccc(C34CC5CC(C3)CC(c3ccc(Oc6ccc(N)c(O)c6)cc3)(C5)C4)cc2)cc1O", "CAT": "label 0"}
{"COMPOUND": "Oc1[nH]c(Nc2ccc(F)c(Cl)c2)nc2ncnc1-2", "CAT": "label 0"}
{"COMPOUND": "Cc1nnc(N/N=C2/C(=O)Nc3c(Cl)cc(Cl)cc32)n1N", "CAT": "label 0"}
{"COMPOUND": "N#Cc1nc(C(F)(F)F)oc1N", "CAT": "label 0"}
{"COMPOUND": "CC1=C(SCc2ccccc2)C(=O)c2ccccc2C1=O", "CAT": "label 0"}
{"COMPOUND": "CCCO/N=[N+](\\[O-])N(CC)CC", "CAT": "label 0"}
{"COMPOUND": "Cc1cccc(C)c1NC(=O)CCC(=O)NNc1nnc(C)n1N", "CAT": "label 0"}
{"COMPOUND": "CCOC(=O)Nc1cc2c(c(N)n1)N=C(c1ccc(OC)cc1)CN2", "CAT": "label 1"}
{"COMPOUND": "NC(=O)ON=C1CCN(Cc2ccccc2)CC1", "CAT": "label 0"}
{"COMPOUND": "COC(=O)c1c/c(=N\\NC(=O)CC(=O)Nc2ccccc2OC)c2ccccc2o1", "CAT": "label 0"}
{"COMPOUND": "C[N+]1=C(c2cccnc2/C=N/O)OCC1(C)C", "CAT": "label 0"}

----------
# Tested on: NCI-H226
# PROTOCOL_DESCRIPTION: NCI tumour cell line growth inhibition, 48 h
The source made the active and inactive calls. Rule as the data show it: active = GI50 up to about 1.1 µM and inactive = higher.
OBSERVATION_TYPE: GI50

{"COMPOUND": "CCC1CCc2c(c(=O)oc3c2cc(OC)c2cccc(OC)c23)C1 (centres undefined)", "TARGET_ENTITY": "NCI-H226", "ENDPOINT_VALUE": "> 100 µM (inactive)"}
{"COMPOUND": "CN(C)c1ccc(/C=C/C=C\\c2cc(/C=C/C=C/c3ccc(N(C)C)cc3)[s+]c3ccccc23)cc1.[O-][Cl+3]([O-])([O-])[O-]", "TARGET_ENTITY": "NCI-H226", "ENDPOINT_VALUE": "> 100 µM (inactive)"}
{"COMPOUND": "COc1ccc2[nH]c3c(C)cc([N+](=O)[O-])c(C)c3c2c1", "TARGET_ENTITY": "NCI-H226", "ENDPOINT_VALUE": "43.7 µM (inactive)"}
{"COMPOUND": "C=CC[C@H](N=C(SC)SC)C(=O)N1C(=O)N(C)[C@@H](C)[C@H]1c1ccccc1", "TARGET_ENTITY": "NCI-H226", "ENDPOINT_VALUE": "31.6 µM (inactive)"}
{"COMPOUND": "CC1(C)CC(=O)C(=[N+]=[N-])C(=O)C1", "TARGET_ENTITY": "NCI-H226", "ENDPOINT_VALUE": "> 100 µM (inactive)"}
{"COMPOUND": "CCCCCCCCCCCCCCCCOc1ccc(/C=C/C2=[N+](CCCl)CCO2)cc1", "TARGET_ENTITY": "NCI-H226", "ENDPOINT_VALUE": "> 100 µM (inactive)"}
{"COMPOUND": "CCOC(=O)/C(=C\\c1c[nH]c2ccccc12)P(=O)(OCC)OCC", "TARGET_ENTITY": "NCI-H226", "ENDPOINT_VALUE": "28.3 µM (inactive)"}
{"COMPOUND": "CCOC(=O)c1cc(-c2cc(OC)c(OC)c([N+](=O)[O-])c2)c([N+](=O)[O-])n1C", "TARGET_ENTITY": "NCI-H226", "ENDPOINT_VALUE": "> 10 µM (inactive)"}
{"COMPOUND": "C=CCN(CCN(CC=C)S(=O)(=O)c1ccc(C)cc1)S(=O)(=O)c1ccc(C)cc1", "TARGET_ENTITY": "NCI-H226", "ENDPOINT_VALUE": "> 100 µM (inactive)"}

----------
# System: KM-20L2
# PROTOCOL_DESCRIPTION: NCI tumour cell line growth inhibition, 48 h
Activity calls are given as the source filed them. Rule as the data show it: active = GI50 up to about 1.1 µM and inactive = higher.
This section presents compounds with their documented GI50 values.

{"COMPOUND": "N#CC(C#N)=c1[nH]c2cccc3c2-c2c(cccc2c3=C(C#N)C#N)[nH]1", "GI50": "> 100 µM (inactive)"}
{"COMPOUND": "CC(=O)C(CN(Cc1ccccc1)Cc1ccccc1)C(c1ccccc1)c1c(O)c2ccccc2oc1=O (stereo not given)", "GI50": "> 100 µM (inactive)"}
{"COMPOUND": "CC(=O)NC(C=O)C(O[C@H](C)C(=O)NC(C)C(=O)NC(CCC(N)=O)C(=O)OCc1ccccc1)C(O)C(O)COC(=O)CCNc1c2ccccc2nc2cccc([N+](=O)[O-])c12 (stereo not given in full)", "GI50": "2 µM (inactive)"}
{"COMPOUND": "O=[N+]([O-])c1nc(-c2ccccn2)[nH]c1[N+](=O)[O-]", "GI50": "39.6 µM (inactive)"}
{"COMPOUND": "COCC(O)Cn1ccnc1[N+](=O)[O-] (stereo not given)", "GI50": "> 100 µM (inactive)"}
{"COMPOUND": "O=C(CC(=O)C1CCOC1=O)C(=O)Nc1cccc(Cl)c1 (stereo not given)", "GI50": "> 100 µM (inactive)"}
{"COMPOUND": "COC(CN1C(=O)c2cccc3cccc(c23)C1=O)OC", "GI50": "> 100 µM (inactive)"}
{"COMPOUND": "CC1(C)CC(=O)C(=[N+]=[N-])C(=O)C1", "GI50": "> 100 µM (inactive)"}
{"COMPOUND": "C/C(=N\\Nc1ccc([N+](=O)[O-])cc1)C(=O)N(C)Nc1ccccc1", "GI50": "60.4 µM (inactive)"}
{"COMPOUND": "COC(=O)C1CCc2c(OC)ccc(OC)c2C1=O (stereo not given)", "GI50": "> 100 µM (inactive)"}

----------
# Tested on: UACC-257
# PROTOCOL_DESCRIPTION: NCI tumour cell line growth inhibition, 48 h
The source made the active and inactive calls. Cut-off read from the data, not from the text of the source: active = GI50 up to about 1.1 µM and inactive = higher.
Possible outcomes: YES (active), NO (inactive)

{"COMPOUND": "CN(C)C[C@H]1CC[C@@H](CN(C)C)C1=O", "CAT": "NO"}
{"COMPOUND": "O=C(O)c1ccc(NC(=O)C2C(=O)C(=O)N(c3ccc(C(=O)O)cc3)C2=O)cc1 (configuration not stated)", "CAT": "NO"}
{"COMPOUND": "Cc1ccc(-c2nc3ccccc3c(=O)n2NC2OC(CO)C(O)C(O)C2O)cc1 (configuration not stated)", "CAT": "NO"}
{"COMPOUND": "CC(C)(C(=O)NN)c1ccccc1", "CAT": "NO"}
{"COMPOUND": "Cc1[nH]c2c(c1C)S(=O)(=O)c1cc3ccccc3nc1N2", "CAT": "NO"}
{"COMPOUND": "Sc1ncnc2nc[nH]c12 [MERCAPTOPURINE ANHYDROUS]", "CAT": "NO"}
{"COMPOUND": "CC1(C)CCOC(Sc2ccccc2)C1 (configuration not stated)", "CAT": "NO"}
{"COMPOUND": "O=C(O)C(CS)NCc1c2ccccc2nc2ccccc12 (configuration not stated)", "CAT": "NO"}
{"COMPOUND": "CC(C)OP(=O)(OC(C)C)/C(C#N)=C/c1c[nH]c2ccccc12", "CAT": "NO"}
{"COMPOUND": "CC1CCc2sc3nc(S)n(-c4ccccc4)c(=O)c3c2C1 (configuration not stated)", "CAT": "NO"}
{"COMPOUND": "C=CC[C@H](N=C(SC)SC)C(=O)N1C(=O)N(C)[C@@H](C)[C@H]1c1ccccc1", "CAT": "NO"}
{"COMPOUND": "CCOC(=O)c1cc(-c2cc(OC)c(OC)c([N+](=O)[O-])c2)c([N+](=O)[O-])n1C", "CAT": "NO"}
{"COMPOUND": "O=C1c2ccccc2C(=O)c2[nH]c(Cc3ccccc3F)nc21", "CAT": "NO"}
{"COMPOUND": "CCN(CC)CCN1C(=O)c2cccc3cc(N)cc(c23)C1=O", "CAT": "NO"}
{"COMPOUND": "COc1ccc(CC/N=C2\\OCc3ccccc32)cc1OC", "CAT": "NO"}
{"COMPOUND": "Nc1nc(Cl)c(N)c(NCC2(CO)CCC2)n1", "CAT": "NO"}
{"COMPOUND": "Cc1nn(C(=O)c2ccc(Cl)cc2)c2c1C(/C=C/c1ccccc1)SC(=N)N2 (configuration not stated)", "CAT": "NO"}
{"COMPOUND": "Brc1ccc(N2C[N+](c3ccc(Br)cc3)=NC(c3ccccc3)=N2)cc1", "CAT": "NO"}
{"COMPOUND": "COc1ccc(/C=C2\\CCS(=O)(=O)c3ccccc3C2=O)cc1", "CAT": "NO"}
{"COMPOUND": "C=CCN(CCN(CC=C)S(=O)(=O)c1ccc(C)cc1)S(=O)(=O)c1ccc(C)cc1", "CAT": "NO"}
{"COMPOUND": "O=c1c2ccccc2nc(-c2ccc(Cl)cc2)n1O", "CAT": "NO"}
{"COMPOUND": "CCOC(=O)[C@@H]1C2C(=C[C@H]3[C@H]1C(=O)N1CCCC[C@H]31)CCCN2C(=O)OCc1ccccc1 (some centres not stated)", "CAT": "NO"}
{"COMPOUND": "C=C1C(=O)O[C@H]2[C@H]3O[C@@H](C[C@@H]12)[C@@]1(C)CC[C@H](O1)C(C)=CCC[C@H]3C", "CAT": "NO"}
{"COMPOUND": "CCC(C)C(=O)OC1C(=O)OC2CC3C(C)=CC(=O)C(O)C3(C)C3C4(O)OCC23C1C(C)C4O (configuration not stated)", "CAT": "YES"}
{"COMPOUND": "COc1cc2c3c(c1OC)C1(C=CC(=O)C=C1)CC3N(C(=O)OC(C)(C)C(Cl)(Cl)Cl)CC2 (configuration not stated)", "CAT": "NO"}
{"COMPOUND": "COC(=O)C1C(=O)N(CCc2c[nH]c3ccccc23)C[C@@H]2CCC(=O)C[C@H]12 (some centres not stated)", "CAT": "NO"}
{"COMPOUND": "Cn1c(=O)c2c(O)cc(N)nc2n(C)c1=O", "CAT": "NO"}
{"COMPOUND": "O=C(Nc1sccc1S(=O)(=O)c1ccc(Cl)cc1)c1ccc(Cl)cc1Cl", "CAT": "NO"}
{"COMPOUND": "COc1cc(C2SCC(=O)N2c2ccc(Cl)c(Cl)c2)cc(OC)c1OC (configuration not stated)", "CAT": "NO"}
{"COMPOUND": "NS(=O)(=O)c1c(O)c2ccccc2oc1=O", "CAT": "NO"}
{"COMPOUND": "CC(=O)Oc1c(N2CCCCC2)c(C(=O)c2ccccc2)c(O)c2ccn(N(C)C)c12", "CAT": "NO"}
{"COMPOUND": "CN1C=C(C(N)=O)C2CC(O)[C@@](NC(=O)CS(N)(=O)=O)(C(=O)O)C2C1 (some centres not stated)", "CAT": "NO"}
{"COMPOUND": "COc1cc(C2=C(C#N)C(N)OC3=C2COc2ccccc23)cc(OC)c1OC (configuration not stated)", "CAT": "NO"}
{"COMPOUND": "CN(C)CCCSc1nc2c(c(=N)n1-c1ccccc1)c(=S)n(-c1ccccc1)c(=S)n2-c1ccccc1", "CAT": "NO"}
{"COMPOUND": "[N-]=[N+]=Nc1cc(=O)oc2ccccc12", "CAT": "NO"}
{"COMPOUND": "O=C(CC(=O)C1CCOC1=O)C(=O)Nc1cccc(Cl)c1 (configuration not stated)", "CAT": "NO"}
{"COMPOUND": "COC(=O)C(Cc1nc2ccccc2nc1O)C(NO)C(=O)Nc1c(Cl)cc([N+](=O)[O-])cc1Cl (configuration not stated)", "CAT": "NO"}
{"COMPOUND": "COc1ccc(CCC2c3cc(OC)c(OC)cc3CCN2C)cc1OC (configuration not stated)", "CAT": "NO"}
{"COMPOUND": "CN1CCN(CCCCN2c3ccccc3Sc3ccc(N=[N+]=[N-])cc32)CC1", "CAT": "NO"}
{"COMPOUND": "Cn1nc2c(c1N)Cc1c(nn(C)c1N)-c1ccccc1-2", "CAT": "NO"}
{"COMPOUND": "c1ccc(-n2nc3ccc4nonc4c3n2)cc1", "CAT": "NO"}
{"COMPOUND": "CCOC(=O)CCC(NC(=O)c1ccc(/N=C/c2nc3cc(C(F)(F)F)ccc3nc2-c2ccccc2)cc1)C(=O)OCC (configuration not stated)", "CAT": "NO"}

Data origin, for the record: ChEMBL document CHEMBL1201862
